This collection of values is drawn from PubChem BioAssay (NCI).

Tested on: A549/ATCC NSCLC
Test: NCI-60 one-dose screen, 48 h (100 = growth as untreated, 0 = no growth, -100 = all killed)
Conditions: 10 µM unless noted
Procedure: Growth inhibition of the A549/ATCC human Non-Small Cell Lung tumor cell line is measured as a screen for anti-cancer activity. Cells are grown in 96 well plates and exposed to the test compound for 48 hours. Compounds are tested at a single concentration, which is 10^-5 M for most compounds. The reported endpoint is percent growth (GI% or GIPRCNT), where numbers from 0 - 100% represent growth inhibition, and numbers from -100% - 0 represent cell death. […]
About 83,000 compounds went through this panel and 20% of them were active in at least one assay; those are over-represented in the sample as a whole.
Simple rule here: growth less than 90% is Fulfilled, otherwise Not fulfilled.

### Prompt # TODO verify growth < 90% strictly for this molecule: `COC(=O)c1c2c(c(C)[n+]([O-])c1C)C(=O)C=C(NCc1ccc(F)c(F)c1)C2=O`
### Response Fulfilled

### Prompt Also need `Cc1cc2c(c(C)c1Cl)C(=O)/C(=C/c1ccco1)O2` , thanks.
### Response Not fulfilled

### Prompt Also need `NCCOc1ccccc1/C=C1\c2ccccc2-c2ccc([N+](=O)[O-])cc21` , thanks.
### Response Fulfilled

### Prompt Also need `O=c1c(-c2nc3ccccc3[nH]2)cc2ccccc2n1Cc1cn(Cc2ccc(F)cc2)nn1` , thanks.
### Response Fulfilled

### Prompt Also need CC(=O)SC1CC(=O)C=C2CCC3C4CCC(=O)OC4(C)CCC3C21C (stereo not drawn) , thanks.
### Response Not fulfilled

### Prompt Also need `O=C1Nc2ccccc2/C1=C/c1ccc[nH]1` , thanks.
### Response Not fulfilled

---

Test system: CCRF-CEM leukemia
Assay: NCI-60 one-dose screen, 48 h (100 = growth as untreated, 0 = no growth, -100 = all killed)
Settings: 10 µM unless noted
Compounds without any hit were thinned out: in the full panel of roughly 83,000, 20% have a hit. Calls of active or inactive are those of the source. Rule for the calls: active = growth percent below 10; inactive = the rest.
Readout Type: growth

CC[C@@H](C)[C@H](NC(=O)Cn1cc(CNC(=O)[C@@H](NC(=O)OCc2ccccc2)C(C)C)nn1)C(=O)O : 106% (inactive)
C=C(C)CCC(C)N1CCC(N2CCC(C(=O)NCCc3ccccc3)CC2)CC1 (stereo not given) : 45.5% (inactive)
COc1ccc(-c2nc(-c3ccccn3)c(-c3ccccn3)n2CC(C)C)cc1OC1CCCC1 : 1.08% (active)
COc1ccc(C2Nc3ncnc(N)c3N=C3c4ccccc4C(=O)C32)cc1 (stereo not given) : 97.9% (inactive)
CCOc1ccc(-c2nonc2NC(=O)c2cccc(C)c2)cc1OCC : 23.1% (inactive)
Cn1cc([C@@H]2Nc3ccc4[nH]ncc4c3[C@H]3[C@H]4CCC(C4)[C@H]32)c(C(F)(F)F)n1 : 27.6% (inactive)
COc1cc(C2C(C#N)=C(N)OC3=C2C(=O)c2ccccc2C3=O)cc(OC)c1O (stereo not given) : 106% (inactive)
O=c1c2cc(F)ccc2sc2c(NCCCNCCO)nc3ccc(Cl)cc3c12 : 13.7% (inactive)

# context switch: different compound, same growth
### Prompt Could you tell me which growth is on file for `COc1cc2cc3c(=O)n4c(cc5cc(OC)ncc54)c(=O)n3c2cn1` ?
### Response 91.9% (inactive)
